What viability was measured for each of the following?
Test: reversal of MRP1-mediated doxorubicin resistance, pilot screen, H69AR cells, doxorubicin co-treatment (AID 601)
Conditions: H69AR cells + 2 uM doxorubicin, CellTiter-Glo, 72 h; measured here: viability with 2 uM doxorubicin; at 10 µM; stronger effect = lower value
Give bare numbers, in %.

INSERT INTO results (molecule, reported_measurement) VALUES
  ('Cc1nc2ccccn2c1C(=O)NCCCN1CCOCC1', 96.4);

Please supply viability for each of the following items, keeping them in order.
1. Cc1csc(NC(=O)CCCSc2nc3ccccc3s2)n1
2. Cc1ccc(CNC(=O)C2CCN(S(=O)(=O)c3c(C)noc3C)CC2)cc1
3. Cc1ccc(NS(=O)(=O)c2cn(C)cn2)cc1

95.9
97.4
86.8
